# target: human somatostatin receptor subtype SSTR5 (human) (UniProt P35346)
# Sequence (P35346 whole entry): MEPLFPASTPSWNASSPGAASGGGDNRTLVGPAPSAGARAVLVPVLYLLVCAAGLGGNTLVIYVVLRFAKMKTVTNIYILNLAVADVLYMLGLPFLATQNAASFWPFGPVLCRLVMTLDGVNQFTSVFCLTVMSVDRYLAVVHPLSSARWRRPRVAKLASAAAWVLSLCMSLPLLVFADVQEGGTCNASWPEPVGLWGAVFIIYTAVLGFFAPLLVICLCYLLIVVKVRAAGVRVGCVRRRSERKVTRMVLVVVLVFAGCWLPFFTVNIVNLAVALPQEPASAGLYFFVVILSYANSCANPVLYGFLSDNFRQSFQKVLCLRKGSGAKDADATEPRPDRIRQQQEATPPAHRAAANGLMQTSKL
# assay_comment: FACS, transfected HEK-293 cells; normalised to Compound 1
*1 amine or outer side, *2 acyl side, *3 side chain or, on linkers, in order; H or OH if unused. Bridges are numbered along the chain shown (N, C = ends). Primed or numbered codes have the meaning given here. [ ]: non-standard residue; d: D form. N(2-mercaptoethyl)Gly = O=C(CN(CCS[*:3])[*:1])[*:2]; FITC′ = fluorescein isothiocyanate; Orn = NCCC[C@H](N)C(=O)O; GABA = NCCCC(=O)O
Answer each item with its documented Binding affinity relative to Compound 1 (% of Compound 1).
One number for each entry.

Consider the following illustrative entries.
1. XCFWXXTFX (FITC-GABA-DPhe-Cys*-Phe-Trp-DTrp-LysAc-Thr-Phe-GlyS2*-NH2 (* = S-S bond; LysAc = acetyllysine; GlyS2 = N-thioethyl glycine; C-terminal amide)) [Compound 14]
7
2. XCFWXKTFX (FITC-GABA-DPhe-Cys*-Phe-Trp-DTrp-Lys-Thr-Phe-GlyS2*-NH2 (* = S-S bond; GlyS2 = N-thioethyl glycine; FITC-GABA on the N-terminal amine; C-terminal amide)) [Compound 1]
100
3. XCFWXXTFX (FITC-GABA-DPhe-Cys*-Phe-Trp-DTrp-HomoLys-Thr-Phe-GlyS2*-NH2 (* = S-S bond; HomoLys = homolysine; GlyS2 = N-thioethyl glycine; C-terminal amide)) [Compound 16]
25
4. {FITC′-GABA}-[dF]RCY[dW]KTF[N(2-mercaptoethyl)Gly]-NH2 (disulfide 3-9) [Compound 6]
2
5. {FITC′-GABA}-[dF]RCF[dW]KTF[N(2-mercaptoethyl)Gly]-NH2 (disulfide 3-9) [Compound 2]
18

Below: the item to evaluate.
Query: Binding affinity relative to Compound 1 (% of Compound 1); subject: {FITC′-GABA}-[dF]CY[dW][Orn]TF[N(2-mercaptoethyl)Gly]-NH2 (disulfide 2-8) [Compound 7]
4
